Tested on: DU-145
procedure-summary: NCI tumour cell line growth inhibition, 48 h
The source made the active and inactive calls. Cut-off read from the data, not from the text of the source: active = GI50 up to about 1.1 µM and inactive = higher.
As shown below, each of these compounds has a reported GI50 value.

[
  {
    "compound": "Oc1cnnc2nc3ccccc3n12",
    "target-system": "DU-145",
    "GI50": "> 100 µM (inactive)"
  }
]

Pending compound:
I'd like to know its GI50. The compound in question is CCCCN(CC)c1nc(C)nc2c1c(C)c(C)n2-c1c(C)cc(C)cc1C [ANTALARMIN]
16.6 µM (inactive)

---

System: KM12
procedure-summary: NCI tumour cell line growth inhibition, 48 h
Calls of active or inactive are those of the source. Rule as the data show it: active = GI50 up to about 1.1 µM and inactive = higher.
Hi! Could you answer with just one of these? active, inactive

Here are 3 compounds together with their reported answers.
[
  {
    "compound": "CC1(C)C[C@H]2C=C(C=O)[C@]34C[C@]3(C(=O)OC4O)[C@H]2C1 (stereo partly specified)",
    "target-system": "KM12",
    "assigned-label": "inactive"
  },
  {
    "compound": "COc1ccc2nc3cc([N+](=O)[O-])ccc3c(NNc3ccccc3)c2c1",
    "target-system": "KM12",
    "assigned-label": "inactive"
  },
  {
    "compound": "CC(=O)/N=C1\\NC(=O)/C(=C/c2ccc(Cl)cc2Cl)N1C",
    "target-system": "KM12",
    "assigned-label": "inactive"
  }
]

Hi, do you know how CC(C(=O)COCc1ccccc1)P1(=O)OC(C)(C)CN1C(C)(C)C (stereo unspecified) came out in this test?
inactive

Similarly, C=CCCCCn1c2ccccc2c2c(C)c3cnccc3c(C)c21 ?
inactive

The measurements presented in this section are drawn from ChEMBL document CHEMBL1201862.
